# Assayed System: ligand binding domain of ERR-α (aa 183-424) (Homo sapiens)
# Construct: His tag (N); thrombin cleavage site (N)
# Sequence (P11474 183-423 limits assumed): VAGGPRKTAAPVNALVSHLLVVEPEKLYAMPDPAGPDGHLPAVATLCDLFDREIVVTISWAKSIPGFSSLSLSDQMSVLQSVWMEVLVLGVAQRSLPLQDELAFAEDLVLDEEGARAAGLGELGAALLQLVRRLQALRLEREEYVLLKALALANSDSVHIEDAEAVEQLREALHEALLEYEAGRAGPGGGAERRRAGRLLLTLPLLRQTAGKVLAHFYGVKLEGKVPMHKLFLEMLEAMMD
# Assay Comment: ThermoFluor thermal-shift binding affinity screen against ERR-α ligand binding domain
# Stated Conditions: 100 μM test compound, 0.1 mg/mL ERR-α, pH 7.6, Kd estimated from melting temperature shift at reference temperature, read-out: TF Kd
pKd: −log10 of the molar value.
Parameter Measured: pKd

// below: answered compounds
| Mol | pKd |
| --- | --- |
| COc1cc(/C=C2\SC(N)=NC2=O)ccc1Oc1ccc(C#N)c(C(F)(F)F)c1 | 6.33 |
| COc1cc(/C=C(\C#N)c2nn(-c3ccccc3)c(N)c2C#N)ccc1Oc1ccc(C#N)c(C(F)(F)F)c1 | 5.84 |
| COc1cc(/C=C2\SC(N)=NC2=O)ccc1Oc1ccc(C(F)(F)F)cc1[N+](=O)[O-] | 6.44 |
| CCOC(=O)CN1C(=O)S/C(=C\c2ccc(Oc3ccc(C(F)(F)F)cc3[N+](=O)[O-])c(OC)c2)C1=O | 5.31 |
| COc1cc(/C=C(\C#N)c2ccccn2)ccc1Oc1ccc(C(F)(F)F)cc1[N+](=O)[O-] | 5.86 |

a. COc1cc(C=C2C(=O)c3ccccc3C2=O)ccc1Oc1ccc(C(F)(F)F)cc1[N+](=O)[O-]
b. CCN1C(=O)/C(=C\c2ccc(Oc3ccc(C(F)(F)F)cc3[N+](=O)[O-])c(OC)c2)SC1=S
Endpoint returns whichever of a and b has the numerically higher pKd. Reply briefly: the label of your chosen item.
a

====

# Assayed System: ligand binding domain of ERR-α (aa 183-424) (Homo sapiens, UniProt P11474)
# Construct: His tag (N); thrombin cleavage site (N)
# Sequence (P11474 183-423 limits assumed): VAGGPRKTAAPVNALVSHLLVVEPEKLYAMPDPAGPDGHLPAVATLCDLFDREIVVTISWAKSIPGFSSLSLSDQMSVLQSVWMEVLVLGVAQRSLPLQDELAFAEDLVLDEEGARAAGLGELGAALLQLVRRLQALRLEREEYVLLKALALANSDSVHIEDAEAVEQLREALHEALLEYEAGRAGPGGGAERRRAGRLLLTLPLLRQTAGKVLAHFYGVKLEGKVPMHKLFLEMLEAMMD
# Assay Comment: ThermoFluor thermal-shift binding affinity screen against ERR-α ligand binding domain
# Stated Conditions: 100 μM test compound, 0.1 mg/mL ERR-α, pH 7.6, Kd estimated from melting temperature shift at reference temperature, read-out: TF Kd
# Procedure: The ligand binding domain of ERR-α (aa 183-424) was subcloned in frame with the N-terminal His tag and the cleavable thrombin site in pET28. The protein was expressed in BL21(DE3^+) following induction with 100 μM IPTG at 16° C. […] Binding affinities of compounds were determined by screening against the ligand binding domain of ERR-α using ThermoFluor® technology (U.S. Pat. No. 6,020,141 and U.S. Pat. No. 6,036,920, and Journal of Biomolecular Screening 6 (6), 2002, pgs 429-440). […]
Parameter Measured: Kd (µM)

# example entries with known answers
| Mol | Kd / µM |
| --- | --- |
| COc1cc(/C=C(\C#N)C(=O)c2ccccc2)ccc1Oc1ccc(C(F)(F)F)cc1[N+](=O)[O-] | 0.608 |
| COc1cc(/C=C2\C(=O)ON=C2c2ccccc2)ccc1Oc1ccc(C(F)(F)F)cc1[N+](=O)[O-] | 0.795 |
| N#C/C(=C\c1ccc(Oc2ccccc2)cc1)c1nn(-c2ccccc2)c(N)c1C#N | 26 |
| COc1cc(/C=C(\C#N)c2nn(-c3ccccc3)c(N)c2C#N)ccc1Oc1ccc([N+](=O)[O-])c(C(F)(F)F)c1 | 1.71 |

A. COc1cc(C=C2C(=O)c3ccccc3C2=O)ccc1OCc1cccc(F)c1
B. CCCCN1C(=O)S/C(=C\c2ccc(Oc3ccc(C(F)(F)F)cc3[N+](=O)[O-])c(OC)c2)C1=O
C. COc1cc(C=C(C#N)C#N)ccc1Oc1ccc(C(F)(F)F)cc1[N+](=O)[O-]
Endpoint returns the given compounds ordered by ascending Kd. Write the labels, ordered according to the request.
B, C, A

====

# Assayed System: ligand binding domain of ERR-α (aa 183-424) (Homo sapiens)
# Construct: His tag (N); thrombin cleavage site (N)
# Sequence (P11474 183-423 limits assumed): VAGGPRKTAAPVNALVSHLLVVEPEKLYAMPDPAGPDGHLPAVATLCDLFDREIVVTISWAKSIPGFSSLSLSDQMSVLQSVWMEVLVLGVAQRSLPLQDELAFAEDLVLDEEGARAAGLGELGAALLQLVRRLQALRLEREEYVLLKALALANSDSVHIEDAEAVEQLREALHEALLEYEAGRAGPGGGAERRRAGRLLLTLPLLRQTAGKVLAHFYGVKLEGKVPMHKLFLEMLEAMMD
# Assay Comment: ThermoFluor thermal-shift binding affinity screen against ERR-α ligand binding domain
# Stated Conditions: 100 μM test compound, 0.1 mg/mL ERR-α, pH 7.6, Kd estimated from melting temperature shift at reference temperature, read-out: TF Kd
pKd: −log10 of the molar value.
Parameter Measured: pKd

These recorded examples may help you get a feel for the data.
| Compound | Measured Number |
| --- | --- |
| COc1cc(/C=C2\C(=O)N(c3ccccc3)N=C2C)ccc1Oc1ccc(C(F)(F)F)cc1[N+](=O)[O-] [Example 30] | 5.94 |
| COc1cc(/C=C2\SC(=O)NC2=O)ccc1Oc1ccc(C(F)(F)F)cc1[N+](=O)[O-] [Example 10] | 6.63 |
| COC(=O)c1ccc(Oc2ccc(/C=C3\SC(=O)NC3=O)cc2OC)cc1C(F)(F)F [Example 15] | 6.94 |

A. COC(=O)c1ccc(Oc2ccc(/C=C3\SC(=O)NC3=O)cc2OC)c([N+](=O)[O-])c1 [Example 18]
B. COC(=O)c1ccc(Oc2ccc(C=C3C(=O)c4ccccc4C3=O)cc2OC)c([N+](=O)[O-])c1 [Example 35]
C. O=C1NC(=O)/C(=C/c2ccc(Oc3ccccc3)cc2)S1 [Example 20]
D. COc1cc(/C=C(\C#N)c2nn(-c3ccccc3)c(N)c2C#N)ccc1Oc1ccc(C(F)(F)F)cc1[N+](=O)[O-] [Example 1]
Returns the items ordered by pKd, from maximum to minimum. As an answer, provide the labels arranged in the order called for.
A, B, D, C

====

# Assayed System: ligand binding domain of ERR-α (aa 183-424) (Homo sapiens)
# Construct: His tag (N); thrombin cleavage site (N)
# Assay Comment: ThermoFluor thermal-shift binding affinity screen against ERR-α ligand binding domain
# Stated Conditions: 100 μM test compound, 0.1 mg/mL ERR-α, pH 7.6, Kd estimated from melting temperature shift at reference temperature, read-out: TF Kd
pKd: −log10 of the molar value.
Parameter Measured: pKd

| Mol | Assayed System | Measured Number |
| --- | --- | --- |
| COc1cc(/C=C2\SC(=O)NC2=O)ccc1OCc1cccc(F)c1 | ligand binding domain of ERR-α (aa 183-424) (Homo sapiens) | 5.50 |
| COc1cc(/C=C(/C(=O)c2cccs2)C(=O)C(F)(F)F)ccc1Oc1ccc(C(F)(F)F)cc1[N+](=O)[O-] | ligand binding domain of ERR-α (aa 183-424) (Homo sapiens) | 4.81 |

1. N#C/C(=C\c1ccc(Oc2ccc(C(F)(F)F)cc2[N+](=O)[O-])cc1)c1nn(-c2ccccc2)c(N)c1C#N
2. COc1cc(/C=C2/NC(=S)NC2=O)ccc1Oc1ccc(C(F)(F)F)cc1[N+](=O)[O-]
Quick check, higher pKd between 1 and 2 ? Record your answer as the label of the chosen record.
2

====

# Assayed System: ERR-α (Homo sapiens, UniProt P11474)
# Assay Comment: 2-Hybrid cell based luciferase reporter assay (pBIND-Gal4-ERR-α / pACT-SRC2) in HEK293E cells
# Stated Conditions: 24 hours compound treatment, firefly luciferase normalized to Renilla, average from three independent experiments
# Protocol: A cell based reporter assay was also used to determine the functional response of the ERR-α hits. Transfections were performed in HEK293E cells that were maintained in DMEM supplemented in glutamine and 10% FBS. […] Firefly Luciferase activity was read using a luminescence plate reader, and data were normalized against Renilla luciferase activity. […]
Parameter Measured: IC50 (nM)

| Molecule | IC50, nM |
| --- | --- |
| COC(=O)c1ccc(Oc2ccc(/C=C3\SC(=O)NC3=O)cc2OC)cc1C(F)(F)F [Example 15] | 1500 |

P. COc1cc(/C=C2\SC(N)=NC2=O)ccc1Oc1ccc(C#N)c(C(F)(F)F)c1 [Example 8]
Q. COc1cc(/C=C2\SC(=O)NC2=O)ccc1Oc1ccc(C#N)c(C(F)(F)F)c1 [Example 12]
R. N#C/C(=C\c1ccc(Oc2ccc(C(F)(F)F)cc2[N+](=O)[O-])cc1)c1nn(-c2ccccc2)c(N)c1C#N [Example 2]
S. N#C/C(=C\c1ccc(Oc2ccccc2)cc1)c1nn(-c2ccccc2)c(N)c1C#N [Example 5]
Could you please order the items by IC50, going from the lowest number to the highest? List labels; respect the requested ordering.
Q, P, R, S
(Q: 50 nM, P: 140 nM, R: 7780 nM, S: 26000 nM)
